# assay-target: Recombinant human BACE1 (Homo sapiens, UniProt P56817)
# Sequence (P56817 46-501): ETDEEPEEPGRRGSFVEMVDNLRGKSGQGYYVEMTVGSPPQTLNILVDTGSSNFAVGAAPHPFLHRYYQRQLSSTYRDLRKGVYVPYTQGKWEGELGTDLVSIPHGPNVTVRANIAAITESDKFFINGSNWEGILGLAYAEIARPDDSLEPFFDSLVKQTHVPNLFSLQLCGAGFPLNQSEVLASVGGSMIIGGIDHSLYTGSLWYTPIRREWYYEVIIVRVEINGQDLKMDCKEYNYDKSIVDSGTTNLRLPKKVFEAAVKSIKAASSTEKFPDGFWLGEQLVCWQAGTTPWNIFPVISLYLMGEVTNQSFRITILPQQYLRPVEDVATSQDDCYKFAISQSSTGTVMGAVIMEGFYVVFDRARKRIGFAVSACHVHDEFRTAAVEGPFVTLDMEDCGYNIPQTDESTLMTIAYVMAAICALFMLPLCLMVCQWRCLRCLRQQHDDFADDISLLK
# test-summary: Assay of BACE1 inhibitory activity
# condition-label: Recombinant human BACE1, 30° C., 3 hours, pH 5.0; read-out: IC50 (50% inhibitory concentration against the enzymatic activity)
# Description: 48.5 μL of substrate peptide solution (Biotin-XSEVNLDAEFRHDSGC-Eu: X=ε-amino-n-capronic acid, Eu=Europium cryptate) was added to each well of 96-hole half-area plate (a black plate: Costar), and after addition of 0.5 μl of the compound of the present invention (N,N′-dimethylformamide solution) and 1 μl of Recombinant human BACE1(R&D Systems), the reaction mixture was incubated at 30° C. for 3 hours. […]
pIC50: −log10 of the molar value.
Listed here are molecules together with their documented pIC50.

CC1(c2cc(NC(=O)C#Cc3ccccc3)ccc2F)Cc2cnccc2C(N)=N1 (stereo not drawn) :: 6.83
CC1(c2cc(NC(=O)c3ccc(Cl)cn3)ccc2F)Cc2ccncc2C(N)=N1 (stereo not drawn) :: ≥ 6.00
CC1(c2cc(NC(=O)c3ccc(Cl)cn3)ccc2F)Cc2c(F)cncc2C(N)=N1 (stereo not drawn) :: ≥ 6.00
CC1(c2cc(NC(=O)c3ncc(F)cc3F)ccc2F)Cc2c(F)cncc2C(N)=N1 (stereo not drawn) :: ≥ 6.00
Cc1cnc(C(=O)Nc2ccc(F)c(C3(C)Cc4c(F)cncc4C(N)=N3)c2)cn1 (stereo not drawn) :: ≥ 6.00
CCCC#CC(=O)Nc1ccc(F)c(C2(C)Cc3cnccc3C(N)=N2)c1 (stereo not drawn) :: ≥ 5.52

# value lookup — system Recombinant human BACE1 (Homo sapiens, UniProt P56817), readout pIC50, item CC1(c2cc(NC(=O)c3ccc(C(F)(F)F)cn3)ccc2F)Cc2c(F)cncc2C(N)=N1 (stereo not drawn)
≥ 6.00

# value lookup — system Recombinant human BACE1 (Homo sapiens, UniProt P56817), readout pIC50, item CC1(c2cc(NC(=O)C#CC3CC3)ccc2F)Cc2cnccc2C(N)=N1 (stereo not drawn)
≥ 5.52

# value lookup — system Recombinant human BACE1 (Homo sapiens, UniProt P56817), readout pIC50, item CC1(c2cc(NC(=O)c3ccc(C#N)cn3)ccc2F)Cc2cccnc2C(N)=N1 (stereo not drawn)
≥ 6.00

# value lookup — system Recombinant human BACE1 (Homo sapiens, UniProt P56817), readout pIC50, item CC1(c2cc(NC(=O)c3ccc(C#N)cn3)ccc2F)Cc2ccncc2C(N)=N1 (stereo not drawn)
≥ 6.00

# value lookup — system Recombinant human BACE1 (Homo sapiens, UniProt P56817), readout pIC50, item CC1(c2cc(NC(=O)c3ncc(F)cc3F)ccc2F)Cc2cnccc2C(N)=N1 (stereo not drawn)
≥ 6.00

---

# test-summary: Solubility test (turbidity, JP-I, JP-II)
# Type: physicochemical
# condition-label: JP-II medium, pH 6.8, aqueous buffer, kinetic from dmso stock; JP-II, turbidity after 4 hours, 2% DMSO
readout-label: solubility at 4 h

Which value of solubility at 4 h has been reported for CC1(c2cc(NC(=O)c3ccc(C#N)cn3)ccc2F)Cc2c(F)cncc2C(N)=N1 (stereo not shown) in the records?
> 40 µM

---

# assay-target: CYP2C19 (Homo sapiens, UniProt P33261)
# Sequence (P33261 whole entry): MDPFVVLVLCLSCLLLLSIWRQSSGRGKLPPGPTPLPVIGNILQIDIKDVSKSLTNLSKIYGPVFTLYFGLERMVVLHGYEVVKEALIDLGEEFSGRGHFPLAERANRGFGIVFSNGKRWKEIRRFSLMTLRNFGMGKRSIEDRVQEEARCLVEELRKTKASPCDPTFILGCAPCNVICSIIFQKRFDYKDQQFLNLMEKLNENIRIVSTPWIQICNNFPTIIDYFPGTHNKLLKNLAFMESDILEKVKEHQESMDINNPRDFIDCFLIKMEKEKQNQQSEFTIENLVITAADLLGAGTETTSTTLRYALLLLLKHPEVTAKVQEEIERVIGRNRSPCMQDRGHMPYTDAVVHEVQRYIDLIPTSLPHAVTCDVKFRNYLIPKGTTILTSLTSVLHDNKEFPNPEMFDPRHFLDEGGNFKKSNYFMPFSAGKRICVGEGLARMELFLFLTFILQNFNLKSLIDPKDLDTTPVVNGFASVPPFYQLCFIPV
pIC50: −log10 of the molar value.
readout-label: pIC50

Which value of pIC50 has been reported for CC1(c2cc(NC(=O)c3ncc(F)cc3F)ccc2F)Cc2ccncc2C(N)=N1 (stereo not shown) [Compound I-2] in the records?
< 4.70
